The reported numbers originate from PubChem BioAssay.

- assay.details: compound effects on multiple myeloma cell viability – MM1S, calcein-AM fluorescence, 48 h, basal, profiling panel (AID 1165);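 also: viability of MM1S multiple myeloma cells under basal unstimulated conditions; test concentration not given here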
- experimental.setup: higher = more signal
# z-score per record follows

molecule	z-score
O=C1O[C@H](c2ccccc2)[C@H](c2ccccc2)N2[C@H]1[C@@H](C(=O)N1CCN(c3ncccn3)CC1)[C@]1(C(=O)Nc3ccc(C#CCCO)cc31)[C@H]2c1ccccc1OCCO	-0.445
N#Cc1ccc(NN2C(C(O)c3ccco3)C=CC3C(=O)N(c4ccccc4)C(=O)C32)cc1 (stereo not drawn)	-0.372
COCCOC(=O)N1C(=O)[C@@]2(c3ccccc31)[C@H](c1ccccc1OCCO)N1[C@H](c3ccccc3)[C@H](c3ccccc3)OC(=O)[C@H]1[C@@H]2C(=O)N1CCc2cc(OC)c(OC)cc2C1	-1.87
C=CCOC(=O)[C@@H]1[C@H]2C(=O)O[C@H](c3ccccc3)[C@H](c3ccccc3)N2[C@H](c2ccc(OCCOC(=O)[C@@H]3C[C@@H]4C(=O)N5CCC[C@H]5C(=O)N4[C@@H]3c3cccc(OCCO)c3)cc2)[C@@]12C(=O)Nc1ccc(I)cc12	-0.16
COC(=O)C(CC#Cc1ccc2c(c1)[C@]1(C(=O)N2)[C@H](c2ccc(OCCO)cc2)N2[C@H](c3ccccc3)[C@H](c3ccccc3)OC(=O)[C@H]2[C@@H]1C(=O)O)C(=O)OC	0.47
COCCCNC(=O)[C@]1(Cc2ccccc2CN=[N+]=[N-])N=C(c2ccc(OCCCO)cc2)O[C@@H]1c1ccccc1CN=[N+]=[N-]	-2.79
CCCCC(CC)C(O)C1C=CC2C(=O)NC(=O)C2N1Nc1ccccn1 (stereo not drawn)	-0.11
Cc1cc(C)c(C(O)C2C=CC3C(=O)N(c4ccccc4)C(=O)C3N2Nc2ccc([N+](=O)[O-])cc2)c(C)c1 (stereo not drawn)	-0.86
CC(C)C[C@@H]1NC(=O)[C@@]23C(=O)N[C@@H](Cc4ccccc4)C2[C@H](C)[C@@]2(C)O[C@H]2C3/C=C/C/C=C\CNC(=O)[C@@H]2CCCN2C1=O (stereo partly drawn)	-0.641
O=C1O[C@H](c2ccccc2)[C@H](c2ccccc2)N2[C@H]1[C@@H](C(=O)N1CCN(c3ncccn3)CC1)[C@]1(C(=O)Nc3ccc(C#CCCO)cc31)[C@H]2c1ccc(OCCO)cc1	-1.04
CC(C)N1CC=CC23O[C@@H]4C=CCOC(=O)[C@@H]4[C@H]2C(=O)N(CCCCCCO)[C@@H]3C1=O (stereo partly drawn)	1.17
C=C(CCCC)/C(=C/C[C@H](OC(=O)c1ccncc1)c1ccc(CO)o1)c1cc(C(=O)OC)ccc1OC	-3.18
C=C(C(=O)CC[C@H](OC(=O)c1cccnc1)c1ccc(OCCO)cc1)C(C)C	-3.3
